Data credit: ChEMBL document CHEMBL1961873

# target.desc: Tyrosine-protein kinase Fer (Homo sapiens) (UniProt P16591);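 note: reported figures are averaged percent inhibition of FER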
# Sequence (P16591 whole entry, looked up): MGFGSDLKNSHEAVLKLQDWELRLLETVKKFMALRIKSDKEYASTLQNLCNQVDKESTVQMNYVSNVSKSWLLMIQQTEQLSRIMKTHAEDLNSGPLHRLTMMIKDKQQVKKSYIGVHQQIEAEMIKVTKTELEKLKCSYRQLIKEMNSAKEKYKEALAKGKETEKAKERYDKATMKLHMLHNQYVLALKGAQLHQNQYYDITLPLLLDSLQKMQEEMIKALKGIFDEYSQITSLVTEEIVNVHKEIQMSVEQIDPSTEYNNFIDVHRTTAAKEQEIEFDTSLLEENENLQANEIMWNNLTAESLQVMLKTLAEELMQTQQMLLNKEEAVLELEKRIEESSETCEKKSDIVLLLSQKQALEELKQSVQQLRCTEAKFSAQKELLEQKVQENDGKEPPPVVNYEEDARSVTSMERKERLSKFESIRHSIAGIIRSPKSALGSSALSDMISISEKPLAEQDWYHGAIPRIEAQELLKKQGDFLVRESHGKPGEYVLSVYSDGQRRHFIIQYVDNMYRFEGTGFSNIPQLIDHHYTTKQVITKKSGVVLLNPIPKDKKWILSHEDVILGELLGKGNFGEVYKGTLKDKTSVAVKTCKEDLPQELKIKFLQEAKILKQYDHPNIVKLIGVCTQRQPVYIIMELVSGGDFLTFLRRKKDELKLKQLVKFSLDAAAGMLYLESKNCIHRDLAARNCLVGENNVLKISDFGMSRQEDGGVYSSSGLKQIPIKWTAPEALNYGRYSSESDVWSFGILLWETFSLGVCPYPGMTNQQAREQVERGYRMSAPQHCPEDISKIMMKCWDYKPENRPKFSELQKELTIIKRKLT
# condition.details: at 0.1 µM
observation.type: inhibition (%)
Answers are plain numbers, in %.

Use these answered entries as a reference point.
CCCN1CCC(c2ccc(Nc3nc(Nc4cc(F)ccc4C(N)=O)c4cc[nH]c4n3)c(OC)c2)CC1 : 77
COC(=O)Nc1nc2ccc(Oc3ccc(NC(=O)Nc4cccc(Cl)c4)cc3)cc2[nH]1 : 1.61
N#Cc1c(NC(=O)c2ccc(F)cc2)sc2c1CCCC2 : 0.75
CC(=O)NCc1cccc(C#Cc2cncnc2Nc2ccc(OCc3cccc(F)c3)c(Cl)c2)c1 : 2.72
CC(C)COC(=O)c1ccc2c(c1)/C(=C/Nc1ccc(S(N)(=O)=O)cc1)C(=O)N2 : 0.76

Look up inhibition for the entries below, preserving their order.
1. CC1=C(C(=O)Nc2cc(Cl)c3[nH]ncc3c2)C(c2ccc(C(F)(F)F)cc2)CC(=O)N1 (stereo not given)
2. COc1cc(Nc2nccc(Nc3ccc4c(C)n[nH]c4c3)n2)cc(OC)c1OC

[4.27, 6.42]

###

Kindly supply the reported inhibition values for the records listed here.
# target.desc: Glycogen synthase kinase-3 beta (Homo sapiens) (UniProt P49841);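 note: values are mean percent inhibition of GSK3B activity, from the GSK Published Kinase Inhibitor Set (PKIS) screening dataset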
# Sequence (P49841 whole entry, looked up): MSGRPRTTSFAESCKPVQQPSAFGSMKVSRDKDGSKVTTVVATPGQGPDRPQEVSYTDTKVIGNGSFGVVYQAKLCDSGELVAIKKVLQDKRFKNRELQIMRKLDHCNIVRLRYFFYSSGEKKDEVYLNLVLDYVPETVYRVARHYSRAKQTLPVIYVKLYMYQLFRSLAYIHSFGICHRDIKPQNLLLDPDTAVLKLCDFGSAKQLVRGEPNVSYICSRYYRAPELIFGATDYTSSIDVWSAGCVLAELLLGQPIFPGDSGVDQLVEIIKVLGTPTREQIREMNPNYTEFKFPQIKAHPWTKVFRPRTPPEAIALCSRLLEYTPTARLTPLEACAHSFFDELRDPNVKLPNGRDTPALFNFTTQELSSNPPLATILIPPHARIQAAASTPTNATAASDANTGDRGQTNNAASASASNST
# condition.details: at 0.1 µM
One number for each entry, in %.

Look up inhibition for the entries below, preserving their order.
1. Cc1cccc(Nc2ncc(-c3ccccc3)o2)c1
2. CN(C)CCOc1ccc(-c2nc(-c3ccncc3)c(-c3ccc4c(c3)CC/C4=N\O)[nH]2)cc1
3. COc1cccc(-n2ncc3c(N/N=C/c4ccc(F)cc4)ncnc32)c1
4. CNC(=O)c1cccc(C#Cc2cncnc2Nc2ccc(OCc3cccc(F)c3)c(Cl)c2)c1

[3.23, 4.7, 54.6, 0.4]

Look up inhibition for the entries below, preserving their order.
1. COc1ccc(CNC(=O)c2ccc(-c3cc(-c4nnc(C)o4)ccc3C)cc2)cc1
2. CCc1nn2ncccc2c1-c1ccnc(NC2CC2)n1
3. N#Cc1c(NC(=O)c2ccc(F)cc2)sc2c1CCCC2
4. CCn1c(-c2nonc2N)nc2c(C#CC(C)(C)O)ncc(OC3CCNCC3)c21
5. COc1ccc(-c2cc3c(N)ncnc3o2)cc1

1: 5.31; 2: 6.18; 3: -0.51; 4: 10; 5: 5.53

Look up inhibition for the entries below, preserving their order.
1. FC(F)(F)c1cccc(-c2nn3ncccc3c2-c2ccnc(Nc3ccc4c(c3)OCCO4)n2)c1
2. Fc1ccc(-c2nn3ncccc3c2-c2ccnc(Nc3ccc4c(c3)OCCO4)n2)cc1

1: 5.36; 2: 39

###

# target.desc: Tyrosine-protein kinase Fyn (Homo sapiens) (UniProt P06241)
# Sequence (P06241 2-537 limits assumed): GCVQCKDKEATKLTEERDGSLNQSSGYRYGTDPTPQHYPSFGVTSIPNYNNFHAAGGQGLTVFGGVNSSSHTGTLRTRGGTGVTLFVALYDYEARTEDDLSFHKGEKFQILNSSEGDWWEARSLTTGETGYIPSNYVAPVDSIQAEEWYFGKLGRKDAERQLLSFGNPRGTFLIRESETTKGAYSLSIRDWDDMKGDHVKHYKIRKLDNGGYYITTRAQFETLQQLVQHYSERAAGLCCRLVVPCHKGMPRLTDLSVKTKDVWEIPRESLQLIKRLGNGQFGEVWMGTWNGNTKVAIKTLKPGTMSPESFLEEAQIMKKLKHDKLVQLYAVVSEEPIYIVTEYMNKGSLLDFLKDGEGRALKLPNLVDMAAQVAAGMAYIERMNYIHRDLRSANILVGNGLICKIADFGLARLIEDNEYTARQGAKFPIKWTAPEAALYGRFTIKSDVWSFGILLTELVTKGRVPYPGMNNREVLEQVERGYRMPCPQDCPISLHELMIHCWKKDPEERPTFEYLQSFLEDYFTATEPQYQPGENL
# condition.details: at 0.1 µM
# Description: GSK_PKIS: FYN mean inhibition at 0.1 uM [Nanosyn]
observation.type: inhibition
Quick note: number first, unit second.

CCN1CCC(CC(=O)Nc2n[nH]c3nnc(-c4cccc(F)c4F)cc23)CC1 : -0.21%
[O-][S+]1CCN(Cc2ccc(-c3ccc4ncnc(Nc5ccc(OCc6cccc(F)c6)c(Cl)c5)c4c3)o2)CC1 : 1.57%
COc1ccc2c(-c3ccnc(Nc4cccc(OC(F)(F)F)c4)n3)cnn2n1 : 2.72%
CNC(=O)c1cc(-c2ccc(F)cc2)cc(-c2ccc(S(=O)(=O)N3CCCC3)cc2)c1N : 1.22%
NC(=O)c1sc(-n2cnc3ccc(C(F)(F)F)cc32)cc1OCc1ccccc1Br : 2.36%

Look up inhibition for the entries below, preserving their order.
1. CN(C)CCOc1ccc(-c2nc(-c3ccncc3)c(-c3ccc4c(c3)CC/C4=N\O)[nH]2)cc1
2. O=C(O[C@H]1CN[C@H](C#Cc2cc3ncnc(Nc4ccc(Cc5ccccc5)cc4)c3s2)C1)N1CCOCC1
3. CN1CCC(n2cnc(-c3ccc(F)cc3)c2-c2ccnc(N)n2)CC1
4. COc1ccc(-c2cc(-c3c[nH]nc3-c3ccccn3)ccn2)cc1
5. Fc1ccc(-c2nn3ncccc3c2-c2ccnc(Nc3ccc4c(c3)OCCO4)n2)cc1
6. CCCN(CCS(C)(=O)=O)Cc1ccc(-c2ccc3ncnc(Nc4ccc(OCc5cccc(F)c5)c(Cl)c4)c3c2)o1
7. COc1ccc(-c2cc3c(N)ncnc3o2)cc1
8. Cc1ccc(O)cc1Nc1ccnc2cc(-c3ccccn3)ccc12

0.02%
-0.06%
0.4%
3.23%
47%
1.13%
0.82%
55.6%

Look up inhibition for the entries below, preserving their order.
1. CCn1c(-c2nonc2N)nc2cnc(Oc3cccc(NC(=O)c4ccc(N(C)C)cc4)c3)cc21
2. COc1cc2ncn(-c3cc(OCc4ccccc4C(F)(F)F)c(C(=O)N(C)C)s3)c2cc1OC
3. COC(=O)Nc1nc2ccc(S(=O)(=O)c3ccc(NC(=O)Nc4cc(C(F)(F)F)ccc4F)cc3)cc2[nH]1
4. COc1cc(/C=N/Nc2ncnc3[nH]ncc23)ccc1O

1: 1.66%; 2: 1.31%; 3: 1.02%; 4: 8.72%

Look up inhibition for the entries below, preserving their order.
1. COc1cc2c(cc1Nc1nc(Nc3ccsc3C(N)=O)c3cc[nH]c3n1)N(C(=O)CN(C)C)CCC2(C)C
2. CCN(CC)S(=O)(=O)c1ccc(OC)c(Nc2ncc(-c3ccccc3)o2)c1

1. 0.64%
2. 6.94%
